Data provenance: PubChem BioAssay (NCI)

System: MDA-MB-231 breast
assay.comment: NCI tumour cell line growth inhibition, 48 h
endpoint.name: TGI (µM)
Give just the numeric value; µM need not be written.

input: // Input: C=CC(=O)N[C@@H](/C=C/C(=O)OCC)Cc1ccc(-c2cc(Cl)cc(Cl)c2)cc1 . Output its TGI only.
output: 48.8

input: // Input: N#Cc1cc2c(cc1Cl)Sc1nnc(Nc3cccc4ccccc34)n1S2(=O)=O . Output its TGI only.
output: 6.96

input: // Input: Cc1ccc(S(=O)(=O)N2CC(CCN)c3ccccc32)cc1 (stereo unspecified) . Output its TGI only.
output: 29.9

input: // Input: COc1ccc(NC/C=C/C(=C/COC(C)=O)OC(C)=O)cc1 . Output its TGI only.
output: 3.37

***
input: // Input: COc1cc(C(=O)/C=C/c2c(C(F)(F)F)nc3ccccn23)cc(OC)c1OC . Output its TGI only.
output: 19.3

* * *

Tested on: CAKI-1 renal
assay.comment: NCI tumour cell line growth inhibition, 48 h
endpoint.name: TGI

input: // Input: COc1ccc2c(c1)C(=O)c1c-2c(=O)n(CCCN(C)C)c2cc(OC)c(OC)cc12 . Output its TGI only.
output: > 100 µM

***
input: // Input: CC1SC(c2ccc(Cl)cc2)N(CCc2cccs2)C1=O (stereo unspecified) . Output its TGI only.
output: 3.42 µM

input: // Input: O=C1CSC(c2ccccc2O)N1c1ccc(Oc2ccc(Cl)cc2)c(Cl)c1 (stereo unspecified) . Output its TGI only.
output: 74 µM

input: // Input: C[C@H](NC(=O)CNC(=O)CCCCCC(=O)NCC(=O)N[C@@H](C)C(=O)OCc1ccccc1)C(=O)OCc1ccccc1 . Output its TGI only.
output: > 100 µM

input: // Input: C[C@@H](NC(=O)c1ccc(F)cc1)c1ccc2c(c1)CCN2C(=O)C1CCOCC1 . Output its TGI only.
output: > 100 µM

input: // Input: CC(=O)CC(=O)CCC(=O)Nc1cccc(C(F)(F)F)c1 . Output its TGI only.
output: > 100 µM

* * *

System: IGROV1 ovarian
assay.comment: NCI tumour cell line growth inhibition, 48 h
endpoint.name: GI50

Consider the following illustrative entries.
input: Report value: GI50, system: IGROV1 ovarian, molecule: Nc1nc2ccccc2c2c1S(=O)(=O)c1ccc(Cl)cc1C2=O
output: 1.7 µM

input: Report value: GI50, system: IGROV1 ovarian, molecule: O=S(=O)(NCCCNc1cc(-c2cn(-c3ccccc3)nc2-c2cccc(O)c2)ccn1)c1ccc(F)cc1
output: 4.29 µM

input: Report value: GI50, system: IGROV1 ovarian, molecule: C=CC(=O)N[C@@H](/C=C/C(=O)OCC)Cc1ccc(-c2cc(Cl)cc(Cl)c2)cc1
output: 12.7 µM

input: Report value: GI50, system: IGROV1 ovarian, molecule: CN(C)CCCn1c2c(c3cc4c(cc3c1=O)OCO4)C(=O)c1ccccc1-2
output: 3.33 µM

input: Report value: GI50, system: IGROV1 ovarian, molecule: CCN(Cc1ccc(F)cc1)c1ccc(CO)c(C(F)(F)F)c1
output: 1.56 µM

input: Report value: GI50, system: IGROV1 ovarian, molecule: COc1ccc(-c2c3c(N)c4c(nc3nc3c2c(C)nn3-c2ccccc2)CCCC4)cc1
output: 4.26 µM

input: Report value: GI50, system: IGROV1 ovarian, molecule: COC1=C(OC)C(=O)C(CCCCCCCCCCO)=C(C)C1=O
output: 9.74 µM

input: Report value: GI50, system: IGROV1 ovarian, molecule: S=C(NCc1ccc2c(c1)OCO2)N1CCN(c2ncnc3c2oc2ccccc23)CC1
output: > 100 µM

input: Report value: GI50, system: IGROV1 ovarian, molecule: C=C1C(=O)O[C@H]2[C@H]1CC/C(COC(=O)NCc1c[nH]c3ccc(F)cc13)=C\CC[C@@]1(C)O[C@@H]21
output: 1.54 µM

Okay, now this molecule:
input: Report value: GI50, system: IGROV1 ovarian, molecule: N#Cc1c(NC(=O)c2ccccc2F)sc2c1CCCC2
output: > 25 µM
